Just for reference, patent US6800612B2 is where these values come from.

Tested on: arterial ring
Assay: Tests for in vitro vasodilatation (arterial rings contracted with 1 μM Norepinephrine)
Assay type: cell-based
Details: vasodilatation of 50% of arterial ring previously contracted with 1 μM Norepinephrine; 6 to 9 rings; read-out: CE50 (average ± SD), vasodilatation
parameter: EC50 (nM)
Answers are plain numbers, in nM.

Some solved cases for reference:
CC(=O)NC(C(=O)O)C1(SN=O)CCOCC1 (stereo not shown) | 375
CC(=O)NC(C(=O)O)C1(SN=O)CCN(C)CC1 (stereo not shown) | 24
CC(=O)NC(C(=O)O)C(Cc1ccccc1)(Cc1ccccc1)SN=O (stereo not shown) | 630

Q. Using the record for N[C@@H](CCC(=O)N[C@@H](CSN=O)C(=O)NCC(=O)O)C(=O)O [GSNO, S-nitrosoglutathione, reference compound] , report its EC50.
A. 1560
